Below, each entry is listed alongside its reported normalized growth.
# experimental.details: chemical genetic growth profiling, strain panel (AID 1159580);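 further: tested at 20 µM; growth read once vehicle control cultures reached saturation at 30 °C; 1 = growth at the plate median or of vehicle wells; lower values mean less growth of the strain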
# condition.label: S. cerevisiae deletion strains, growth OD, locus YNL209W, strain ssb2, hits give low values
The whole screen tested about 5,500 compounds, of which about 2,000 (36%) were called active. Another 18% or so got no clear call; they are omitted. The list shows a part of the results.
Give only the figure.

Worked examples follow.
[[record]]
smiles_notation = "COC(=O)[C@H]1[C@H]2C[C@H]3c4[nH]c5cc(OC)ccc5c4CCN3C[C@H]2C[C@@H](OC(=O)c2cc(OC)c(OC)c(OC)c2)[C@@H]1OC"
value_kind = "normalized growth"
numeric_result = 1.01

[[record]]
smiles_notation = "C=CCSCC=C"
value_kind = "normalized growth"
numeric_result = 0.985


Which normalized growth value belongs to C=CCSSSCC=C ?
0.992
